- Tested on: PC-3
- TEST NAME: Growth inhibition of human PC3 cells after 6 days by MTT assay
- Type: functional, cell-based
- RECORDED CONDITIONS: PC-3, 144 h
REPORTED PROPERTY: IC50 (µM)

CC1=C(/C=C/C(C)=C/C=C/C(C)=C/C(=O)Nc2ccc(O)cc2)C(C)(C)CCC1n1ccnc1 (racemic) : 1.5
CC1=C(/C=C/C(C)=C/C=C/C(C)=C/C(=O)O)C(C)(C)CCC1n1ccnc1 (racemic) : 7.7
CC1=C(/C=C/C(C)=C/C=C/C(C)=C/C(=O)O)C(C)(C)CCC1 [TRETINOIN] : 2

a: CC1=C(/C=C/C(C)=C/C=C/C(C)=C/C(=O)Nc2ccc(O)cc2)C(C)(C)CCC1 [FENRETINIDE]
b: CC1=C(/C=C/C(C)=C/C=C/C(C)=C/C(=O)n2ccnc2)C(C)(C)CCC1n1ccnc1 (racemic)
Prompt: Between these two entries, a and b , state which has the higher IC50. Record your answer as the label of the chosen record.
Response: b

* * *

- Tested on: MDA-MB-231
- TEST NAME: Growth inhibition of human MDA-MB-231 cells after 6 days by MTT assay
- Assay type: functional, cell-based
- RECORDED CONDITIONS: MDA-MB-231, 144 h
pIC50: −log10 of the molar value.
REPORTED PROPERTY: pIC50

CC1=C(/C=C/C(C)=C/C=C/C(C)=C/C(=O)Nc2ccc(O)cc2)C(C)(C)CCC1 [FENRETINIDE] : 5.11
CC1=C(/C=C/C(C)=C/C=C/C(C)=C/C(=O)Nc2ccc(O)cc2)C(C)(C)CCC1n1ccnc1 (racemic) : 5.20
COC(=O)/C=C(C)/C=C/C=C(C)/C=C/C1=C(C)C(n2ccnc2)CCC1(C)C (racemic) : 5.12
CC1=C(/C=C/C(C)=C/C=C/C(C)=C/C(=O)n2ccnc2)C(C)(C)CCC1 : 5.15

Where do these numbers come from? They come from ChEMBL document CHEMBL1149300.
